# System: MDR Acinetobacter baumannii
# Assay type: cell-based
# conditionLabel: Ab2 (Acinetobacter baumannii)
readoutType: Antibiotic susceptibility

Field: example entries. Status: answers known.
compound	Antibiotic susceptibility
O=C1CN(/N=C/c2ccc([N+](=O)[O-])o2)C(=O)N1 [NIT, Nitrofurantoin]	R
CC1(C)S[C@@H]2[C@H](NC(=O)[C@H](N)c3ccccc3)C(=O)N2[C@H]1C(=O)O [AMP, Ampicillin]	R
CO/N=C(\C(=O)N[C@@H]1C(=O)N2C(C(=O)[O-])=C(C[N+]3(C)CCCC3)CS[C@H]12)c1csc(N)n1 [FEP, Cefepime]	R
C[C@H]1COc2c(N3CCN(C)CC3)c(F)cc3c(=O)c(C(=O)O)cn1c23 [LVX, levofloxacin]	I
C[C@@H](O)[C@H]1C(=O)N2C(C(=O)O)=C(SCCN=CN)C[C@H]12 [IPM, Imipenem]	I
CO/N=C(\C(=O)N[C@@H]1C(=O)N2C(C(=O)O)=C(CSc3nc(=O)c(=O)[nH]n3C)CS[C@H]12)c1csc(N)n1 [CRO, Ceftriaxone]	R
Cc1nnc(SCC2=C(C(=O)O)N3C(=O)[C@@H](NC(=O)Cn4cnnn4)[C@H]3SC2)s1 [CFZ, Cefazolin]	R
CC(C)(O/N=C(\C(=O)N[C@@H]1C(=O)N2C(C(=O)[O-])=C(C[n+]3ccccc3)CS[C@H]12)c1csc(N)n1)C(=O)O [CAZ, Ceftazidime]	R

Then there is this compound:
Lookup: Quick one: give measured Antibiotic susceptibility for NC[C@H]1O[C@H](O[C@H]2[C@H](O)[C@@H](O[C@H]3O[C@H](CO)[C@@H](O)[C@H](N)[C@H]3O)[C@H](N)C[C@@H]2N)[C@H](N)C[C@@H]1O [TOB, Tobramycin]
Found: S

----------
# Test system: Staphylococcus epidermidis
# Type: cell-based
# conditionLabel: Se4 (Staphylococcus epidermidis)
# Protocol: It was also tested whether compounds #63 and #285 can inhibit other coagulase-negative Staphylococcus (CNS) including S. epidermidis, S. hominis, etc. […].
readoutType: Antibiotic susceptibility

CN[C@H](CC(C)C)C(=O)N[C@H]1C(=O)N[C@@H](CC(N)=O)C(=O)N[C@H]2C(=O)N[C@H]3C(=O)N[C@H](C(=O)N[C@H](C(=O)O)c4cc(O)cc(O)c4-c4cc3ccc4O)[C@H](O)c3ccc(c(Cl)c3)Oc3cc2cc(c3O[C@@H]2O[C@H](CO)[C@@H](O)[C@H](O)[C@H]2O[C@H]2C[C@](C)(N)[C@H](O)[C@H](C)O2)Oc2ccc(cc2Cl)[C@H]1O S
CN(C)c1cc(NC(=O)CNC(C)(C)C)c(O)c2c1C[C@H]1C[C@H]3[C@H](N(C)C)C(O)=C(C(N)=O)C(=O)[C@@]3(O)C(O)=C1C2=O S
CCC[C@@H]1C[C@@H](C(=O)N[C@@H]([C@H]2O[C@H](SC)[C@H](O)[C@@H](O)[C@H]2O)[C@H](C)Cl)N(C)C1 R
C[C@H]1COc2c(N3CCN(C)CC3)c(F)cc3c(=O)c(C(=O)O)cn1c23 R

----------
# Test system: S. aureus ATCC strains and MRSA
# Format: cell-based, Staphylococcus aureus
# conditionLabel: Sa1 (MRSA)
readoutType: Antibiotic susceptibility

Consider the worked cases shown below.
CN(C)c1cc(NC(=O)CNC(C)(C)C)c(O)c2c1C[C@H]1C[C@H]3[C@H](N(C)C)C(O)=C(C(N)=O)C(=O)[C@@]3(O)C(O)=C1C2=O S
CO[C@H]1/C=C/O[C@@]2(C)Oc3c(C)c(O)c4c(O)c(c(/C=N/N5CCN(C)CC5)c(O)c4c3C2=O)NC(=O)/C(C)=C\C=C\[C@H](C)[C@H](O)[C@@H](C)[C@@H](O)[C@@H](C)[C@H](OC(C)=O)[C@@H]1C S
O=C1CN(/N=C/c2ccc([N+](=O)[O-])o2)C(=O)N1 S
CC(=O)NC[C@H]1CN(c2ccc(N3CCOCC3)c(F)c2)C(=O)O1 S
CC[C@H]1OC(=O)[C@H](C)[C@@H](O[C@H]2C[C@@](C)(OC)[C@@H](O)[C@H](C)O2)[C@H](C)[C@@H](O[C@@H]2O[C@H](C)C[C@H](N(C)C)[C@H]2O)[C@](C)(O)C[C@@H](C)C(=O)[C@H](C)[C@@H](O)[C@]1(C)O R

Now for the molecule whose Antibiotic susceptibility we want.
Lookup: Note down Antibiotic susceptibility recorded for O=C(O)c1cn(C2CC2)c2cc(N3CCNCC3)c(F)cc2c1=O
Found: R

----------
# System: S. aureus ATCC strains and MRSA
# Type: cell-based, Staphylococcus aureus
# conditionLabel: Sa10 (MRSA)
readoutType: Antibiotic susceptibility

Reference set, count: 4
COc1c(N2C[C@@H]3CCCN[C@@H]3C2)c(F)cc2c(=O)c(C(=O)O)cn(C3CC3)c12 R
CC[C@H]1OC(=O)[C@H](C)[C@@H](O[C@H]2C[C@@](C)(OC)[C@@H](O)[C@H](C)O2)[C@H](C)[C@@H](O[C@@H]2O[C@H](C)C[C@H](N(C)C)[C@H]2O)[C@](C)(O)C[C@@H](C)C(=O)[C@H](C)[C@@H](O)[C@]1(C)O R
CCC[C@@H]1C[C@@H](C(=O)N[C@@H]([C@H]2O[C@H](SC)[C@H](O)[C@@H](O)[C@H]2O)[C@H](C)Cl)N(C)C1 R
CC(=O)NC[C@H]1CN(c2ccc(N3CCOCC3)c(F)c2)C(=O)O1 S

Lookup: Answer briefly: Antibiotic susceptibility recorded on S. aureus ATCC strains and MRSA for Cc1onc(-c2ccccc2)c1C(=O)N[C@@H]1C(=O)N2[C@@H]1SC(C)(C)[C@@H]2C(=O)O
Found: R

----------
# Test system: MDR E. coli
# Type: cell-based
# conditionLabel: Ec4 (E. coli)
readoutType: Antibiotic susceptibility

Please review the entries below; each comes with its answer.
compound	Antibiotic susceptibility
CC1(C)S[C@@H]2[C@H](NC(=O)[C@H](N)c3ccccc3)C(=O)N2[C@H]1C(=O)O	R
C[C@H]1COc2c(N3CCN(C)CC3)c(F)cc3c(=O)c(C(=O)O)cn1c23	R
C[C@@H](O)[C@H]1C(=O)N2C(C(=O)O)=C(S[C@@H]3CN[C@H](C(=O)N(C)C)C3)[C@H](C)[C@H]12	S
O=C1CN(/N=C/c2ccc([N+](=O)[O-])o2)C(=O)N1	S
CC(C)(O/N=C(\C(=O)N[C@@H]1C(=O)N2C(C(=O)[O-])=C(C[n+]3ccccc3)CS[C@H]12)c1csc(N)n1)C(=O)O	R

Lookup: // Input: NC[C@H]1O[C@H](O[C@H]2[C@H](O)[C@@H](O[C@H]3O[C@H](CO)[C@@H](O)[C@H](N)[C@H]3O)[C@H](N)C[C@@H]2N)[C@H](N)C[C@@H]1O . Output its Antibiotic susceptibility only.
Found: R

Lookup: Determine from records and report Antibiotic susceptibility for C[C@@H](O)[C@H]1C(=O)N2C(C(=O)O)=C(S[C@@H]3CN[C@H](C(=O)Nc4cccc(C(=O)O)c4)C3)[C@H](C)[C@H]12
Found: S

Lookup: Using known records, supply Antibiotic susceptibility for CO/N=C(\C(=O)N[C@@H]1C(=O)N2C(C(=O)[O-])=C(C[N+]3(C)CCCC3)CS[C@H]12)c1csc(N)n1 [FEP, Cefepime]
Found: R

----------
# Test system: MDR E. coli
# Assay type: cell-based
# conditionLabel: Ec2 (E. coli)
readoutType: Antibiotic susceptibility

compound	targetUnderTest	readoutType	reading
O=C1CN(/N=C/c2ccc([N+](=O)[O-])o2)C(=O)N1 [NIT, Nitrofurantoin]	MDR E. coli	Antibiotic susceptibility	S
NC[C@H]1O[C@H](O[C@H]2[C@H](O)[C@@H](O[C@H]3O[C@H](CO)[C@@H](O)[C@H](N)[C@H]3O)[C@H](N)C[C@@H]2N)[C@H](N)C[C@@H]1O [TOB, Tobramycin]	MDR E. coli	Antibiotic susceptibility	I
CO/N=C(\C(=O)N[C@@H]1C(=O)N2C(C(=O)O)=C(CSc3nc(=O)c(=O)[nH]n3C)CS[C@H]12)c1csc(N)n1 [CRO, Ceftriaxone]	MDR E. coli	Antibiotic susceptibility	R
CO/N=C(\C(=O)N[C@@H]1C(=O)N2C(C(=O)[O-])=C(C[N+]3(C)CCCC3)CS[C@H]12)c1csc(N)n1 [FEP, Cefepime]	MDR E. coli	Antibiotic susceptibility	R
CC(C)(O/N=C(\C(=O)N[C@@H]1C(=O)N2C(C(=O)[O-])=C(C[n+]3ccccc3)CS[C@H]12)c1csc(N)n1)C(=O)O [CAZ, Ceftazidime]	MDR E. coli	Antibiotic susceptibility	R

Lookup: Find the measured Antibiotic susceptibility of C[C@H]1COc2c(N3CCN(C)CC3)c(F)cc3c(=O)c(C(=O)O)cn1c23 [LVX, levofloxacin] and report it.
Found: R

Lookup: Please report the measured Antibiotic susceptibility for C[C@@H](O)[C@H]1C(=O)N2C(C(=O)O)=C(SCCN=CN)C[C@H]12 [IPM, Imipenem]
Found: S
